- test details: molar heat capacity at constant pressure
- cond: 305 K; 101.33 kPa; Crystal; Small sample (50 mg) DSC
parameter measured: molar heat capacity at constant pressure (J/K/mol)

{"columns": ["compound", "molar heat capacity at constant pressure / J/K/mol"],
 "data": [
  ["OC[C@@H](O)C(O)[C@H](O)CO [D-arabitol]", 206.38],
  ["OC[C@@H](O)[C@@H](O)CO [meso-1,2,3,4-butanetetrol]", 169.01],
  ["OC[C@@H](O)[C@H](O)[C@@H](O)CO [xylitol]", 215.28],
  ["OC[C@H](O)C(O)[C@@H](O)CO [L-(-)-arabitol]", 212.36]
]}

---

- test details: molar heat capacity at constant pressure
- cond: 325 K; 101.33 kPa; Crystal; Small sample (50 mg) DSC
parameter measured: molar heat capacity at constant pressure (J/K/mol)

{"columns": ["compound", "molar heat capacity at constant pressure, J/K/mol"],
 "data": [
  ["O[C@H]1[C@H](O)[C@@H](O)[C@H](O)[C@@H](O)[C@H]1O [cis-1,2,3,5-trans-4,6-cyclohexanehexol]", 241.8],
  ["OC[C@H](O)C(O)[C@@H](O)CO [L-(-)-arabitol]", 231.9],
  ["OC[C@@H](O)C(O)[C@H](O)CO [D-arabitol]", 224.62]
]}

---

- test details: molar heat capacity at constant pressure
- cond: 224.15 K; 101.33 kPa; Crystal; Small sample (50 mg) DSC
parameter measured: molar heat capacity at constant pressure (J/K/mol)

{"columns": ["compound", "molar heat capacity at constant pressure [J/K/mol]"],
 "data": [
  ["OC[C@@H](O)[C@H](O)[C@@H](O)CO [xylitol]", 157.66],
  ["O[C@H]1[C@H](O)[C@@H](O)[C@H](O)[C@@H](O)[C@H]1O [cis-1,2,3,5-trans-4,6-cyclohexanehexol]", 161.84],
  ["OC[C@H](O)C(O)[C@@H](O)CO [L-(-)-arabitol]", 155.94]
]}

---

- test details: molar heat capacity at constant pressure
- cond: 289.15 K; 101.33 kPa; Crystal; Small sample (50 mg) DSC
parameter measured: molar heat capacity at constant pressure (J/K/mol)

{"columns": ["compound", "parameter measured", "recorded result"],
 "data": [
  ["OC[C@@H](O)C(O)[C@H](O)CO", "molar heat capacity at constant pressure", 194.1],
  ["OC[C@@H](O)[C@H](O)[C@@H](O)CO", "molar heat capacity at constant pressure", 202.38],
  ["OC[C@H](O)C(O)[C@@H](O)CO [L-(-)-arabitol]", "molar heat capacity at constant pressure", 200.75]
]}

---

- cond: 4 K; 101.33 kPa; Crystal; relaxation calorimetry
parameter measured: molar entropy (J/K/mol)

{"columns": ["compound", "unit label", "molar entropy"],
 "data": [
  ["OC[C@@H](O)[C@@H](O)[C@H](O)[C@H](O)CO [D-mannitol]", "J/K/mol", 0.02011],
  ["OC[C@@H](O)[C@@H](O)CO [meso-1,2,3,4-butanetetrol]", "J/K/mol", 0.01633],
  ["OC[C@H](O)C(O)[C@@H](O)CO [L-(-)-arabitol]", "J/K/mol", 0.0143]
]}

---

- test details: molar heat capacity at constant pressure
- cond: 8 K; 101.33 kPa; Crystal; relaxation calorimetry
parameter measured: molar heat capacity at constant pressure (J/K/mol)

{"columns": ["smiles string", "unit label", "molar heat capacity at constant pressure"],
 "data": [
  ["OC[C@@H](O)[C@@H](O)CO", "J/K/mol", 0.4614],
  ["OC[C@@H](O)C(O)[C@H](O)CO", "J/K/mol", 0.4038],
  ["OC[C@@H](O)[C@H](O)[C@@H](O)CO", "J/K/mol", 0.4898]
]}
